Entries and their IC50 values follow.
Tested on: SK-HEP1
Assay: Antiproliferative activity against human SK-HEP1 cells assessed as reduction in cell viability incubated for 72 hr by SRB assay
Assay type: functional, cell-based
Conditions: SK-HEP1, 72 h
measured-quantity: IC50 (µM)

{"compound": "Cc1cc2c(c(O[C@@H]3O[C@@H](C)[C@@H](O)[C@@H](O)[C@H]3O)c1)-c1cc3c(c(O)c1[C@@H](O)C2)C(=O)c1c(O)cc(O)cc1C3=O", "measured-on": "SK-HEP1", "censoring-operator": ">", "reported-value": 20}
{"compound": "Cc1c(Cl)c(O[C@@H]2O[C@@H](C)[C@@H](O)[C@@H](O)[C@H]2O)c2cc(O[C@@H]3O[C@@H](C)[C@@H](O)[C@@H](O)[C@H]3O)ccc2c1Cl", "measured-on": "SK-HEP1", "censoring-operator": "=", "reported-value": 14.7}
{"compound": "COc1cc([C@@H]2c3cc4c(cc3[C@@H](O[C@@H]3O[C@@H]5CO[C@@H](C)O[C@H]5[C@H](O)[C@H]3O)[C@H]3COC(=O)[C@H]23)OCO4)cc(OC)c1O [ETOPOSIDE]", "measured-on": "SK-HEP1", "censoring-operator": "=", "reported-value": 0.22}
